IC50: recorded values
target: human Nav 1.8 (Homo sapiens); assay: E-VIPR assay detecting and measuring Nav inhibition properties; format: cell-based; settings: HEK cells expressing a truncated form of human Nav 1.8; compound numbers without "*" (not marked as run in the presence of human serum); read-out: measured IC50 value in the E-VIPR Assay
Sequence (Q9Y5Y9 126-399 limits assumed): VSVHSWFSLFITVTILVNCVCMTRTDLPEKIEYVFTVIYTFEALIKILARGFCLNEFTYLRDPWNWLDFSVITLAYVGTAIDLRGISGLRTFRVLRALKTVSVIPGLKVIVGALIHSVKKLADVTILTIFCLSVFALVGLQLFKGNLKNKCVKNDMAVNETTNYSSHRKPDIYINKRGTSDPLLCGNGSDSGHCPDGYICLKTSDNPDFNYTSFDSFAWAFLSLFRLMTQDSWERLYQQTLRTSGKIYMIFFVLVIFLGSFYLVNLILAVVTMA
Sequence (Q9Y5Y9 660-890 limits assumed): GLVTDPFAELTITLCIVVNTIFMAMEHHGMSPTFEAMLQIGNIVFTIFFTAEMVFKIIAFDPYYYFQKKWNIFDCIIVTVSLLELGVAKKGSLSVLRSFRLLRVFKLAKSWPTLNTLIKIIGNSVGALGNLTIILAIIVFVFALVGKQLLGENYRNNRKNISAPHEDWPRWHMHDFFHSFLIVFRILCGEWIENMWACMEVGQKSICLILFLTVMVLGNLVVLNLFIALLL
Sequence (Q9Y5Y9 1148-1722 limits assumed): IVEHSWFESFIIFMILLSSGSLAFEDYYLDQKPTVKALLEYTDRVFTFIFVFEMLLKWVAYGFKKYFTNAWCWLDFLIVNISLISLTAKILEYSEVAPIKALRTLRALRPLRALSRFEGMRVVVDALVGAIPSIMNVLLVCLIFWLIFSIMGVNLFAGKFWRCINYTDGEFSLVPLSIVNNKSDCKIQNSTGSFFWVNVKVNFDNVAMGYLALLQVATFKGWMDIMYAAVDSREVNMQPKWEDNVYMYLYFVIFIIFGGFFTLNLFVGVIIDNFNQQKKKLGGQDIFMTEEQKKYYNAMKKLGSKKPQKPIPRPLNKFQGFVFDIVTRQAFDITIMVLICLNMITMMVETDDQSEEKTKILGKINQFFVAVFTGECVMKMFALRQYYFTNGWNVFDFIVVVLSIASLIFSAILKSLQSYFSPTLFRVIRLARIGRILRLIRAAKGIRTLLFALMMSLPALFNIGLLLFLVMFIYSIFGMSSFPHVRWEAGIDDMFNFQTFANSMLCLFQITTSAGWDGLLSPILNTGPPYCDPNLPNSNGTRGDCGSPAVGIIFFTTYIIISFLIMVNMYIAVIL

Some solved cases for reference:
[[record]]
molecule = "COc1c([C@H]2[C@H](C(=O)Nc3ccnc(C(=O)N4C[C@@H](N)[C@@H](F)C4)c3)O[C@@](C)(C(F)(F)F)[C@H]2C)ccc(F)c1F"
experimental_readout = "IC50"
measured = "< 10 nM"

[[record]]
molecule = "COc1c([C@H]2[C@H](C(=O)Nc3cc(C(=O)N4CCNCC4)ncc3C)O[C@@](C)(C(F)(F)F)[C@H]2C)ccc(F)c1F"
experimental_readout = "IC50"
measured = "< 10 nM"

[[record]]
molecule = "Cc1cnc(C(N)=O)cc1NC(=O)C1OC(C)(C(F)(F)F)C(C)C1c1ccc(F)c(F)c1OC1CC(O)C1 (centres unmarked)"
experimental_readout = "IC50"
measured = "10 to 100 nM"

[[record]]
molecule = "CN[C@H]1CN(C(=O)c2cc(NC(=O)[C@@H]3O[C@@](C)(C(F)(F)F)[C@@H](C)[C@H]3c3ccc(F)c(F)c3OC)ccn2)C[C@@H]1OC"
experimental_readout = "IC50"
measured = "< 10 nM"

[[record]]
molecule = "COc1c([C@H]2[C@H](C(=O)Nc3ccnc(C(=O)N4C[C@H](OC)[C@@H](N(C)C)C4)c3)O[C@@](C)(C(F)(F)F)[C@H]2C)ccc(F)c1F"
experimental_readout = "IC50"
measured = "< 10 nM"

[[record]]
molecule = "COc1c([C@H]2[C@H](C(=O)Nc3ccnc(C(=O)N4CC5(CCN5)C4)c3)O[C@@](C)(C(F)(F)F)[C@H]2C)ccc(F)c1F"
experimental_readout = "IC50"
measured = "< 10 nM"


Q) State its IC50 on human Nav 1.8 (Homo sapiens): COc1c([C@H]2[C@H](C(=O)Nc3ccnc(C(=O)N[C@H]4C[C@@H](C)CN(C)C4)c3)O[C@@](C)(C(F)(F)F)[C@H]2C)ccc(F)c1F
A) 100 to 1000 nM

Q) // next record COCc1c([C@H]2[C@H](C(=O)Nc3ccnc(C(N)=O)c3)O[C@@](C)(C(F)(F)F)[C@H]2C)ccc(F)c1F (single isomer, unassigned) [Compound 147]
A) < 10 nM

Q) Follow-up entry: COc1c([C@H]2[C@H](C(=O)Nc3ccnc(C(=O)N(C)[C@@H]4CCNC4)c3)O[C@@](C)(C(F)(F)F)[C@H]2C)ccc(F)c1F
A) < 10 nM

Q) And COc1c([C@H]2[C@H](C(=O)Nc3ccnc(C(=O)N4CCN[C@H](C)C4)c3)O[C@@](C)(C(F)(F)F)[C@H]2C)ccc(F)c1F ?
A) < 10 nM

Q) Please answer likewise for COCC1(C)CC(c2ccc(F)c(F)c2OC)C(C(=O)Nc2ccnc(C(N)=O)c2)O1 (single isomer, unassigned) [Compound 27]
A) ≥ 1000 nM
